Quick reference for % Retained 65° C. among some binders
Biological target: T1, TRCW5 antigen (CD3δε-Fc-Avi) (biotinylated (site not stated))
T1 construct: also called recombinant CD3
T1 sequence (chain, as listed by the source mutant limits assumed): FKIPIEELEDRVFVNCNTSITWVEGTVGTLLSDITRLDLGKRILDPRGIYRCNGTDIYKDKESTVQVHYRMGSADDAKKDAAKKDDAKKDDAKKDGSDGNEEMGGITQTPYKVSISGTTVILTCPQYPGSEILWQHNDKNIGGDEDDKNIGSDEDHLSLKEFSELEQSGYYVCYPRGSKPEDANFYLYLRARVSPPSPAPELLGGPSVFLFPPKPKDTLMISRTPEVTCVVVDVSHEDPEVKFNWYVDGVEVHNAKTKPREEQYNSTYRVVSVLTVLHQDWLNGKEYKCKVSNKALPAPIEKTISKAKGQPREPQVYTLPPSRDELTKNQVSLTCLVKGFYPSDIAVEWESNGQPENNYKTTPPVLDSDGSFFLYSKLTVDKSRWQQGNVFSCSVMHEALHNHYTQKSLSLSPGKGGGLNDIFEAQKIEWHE
Assay: ELISA after heat
# answer = value followed by unit

Completed entries (count: 4):
CD3B2048 (scFv) scFv: QVQLVQSGAEVKKPGSSVKVSCKASGYTFTRSTMHWVKQAPGQGLEWIGYINPSSAYTNYNQKFQGRVTLTADKSTSTAYMELSSLRSEDTAVYYCASPQVHYDYNGFPYWGQGTLVTVSSGGSEGKSSGSGSESKSTGGSEIVLTQSPATLSASPGERVTLSCSASSSVSYMNWYQQKPGQAPRRLIYDSSKLASGVPARFSGSGSGRDYTLTISSLEPEDFAVYYCQQWSRNPPTFGGGTKVEIK    22%
CD3B2039 (scFv) scFv: QVQLVQSGAEVKKPGSSVKVSCKASGYTFTRSTMHWVKQAPGQGLEWMGYINPSSAYTNYAQKFQGRVTLTADKSTSTAYMELSSLRSEDTAVYYCASPQVHYDYNGFPYWGQGTLVTVSSGGSEGKSSGSGSESKSTGGSEIVLTQSPATLSASPGERVTLSCSASSSVSYMNWYQQKPGQSPRRWIYDSSKLASGVPARFSGSGSGRDYTLTISSLEPEDFAVYYCQQWSRNPPTFGGGTKVEIK    44%
CD3B2067 (scFv) scFv: QVQLVQSGAEVKKPGSSVKVSCKASGYTFTRSTMHWVRQAPGQGLEWMGYINPSSAYTNYNQKFQGRVTLTADKSTSTAYMELSSLRSEDTAVYYCASPQVHYDYNGFPYWGQGTLVTVSSGGSEGKSSGSGSESKSTGGSEIVLTQSPATLSASPGERVTLSCSASSSVSYMNWYQQKPGQSPRRLIYDSSKLASGVPARFSGSGSGRDYTLTISSLEPEDFAVYYCQQWSRNPPTFGGGTKVEIK    5%
CD3B2038 (scFv) scFv: QVQLVQSGAEVKKPGSSVKVSCKASGYTFTRSTMHWVKQAPGQGLEWMGYINPSSAYTNYAQKFQGRVTLTADKSTSTAYMELSSLRSEDTAVYYCASPQVHYDYNGFPYWGQGTLVTVSSGGSEGKSSGSGSESKSTGGSEIVLTQSPATLSASPGERVTLSCSASSSVSYMNWYQQKPGTAPRRLIYDSSKLASGVPARFSGSGSGRDYTLTISSLEPEDFAVYYCQQWSRNPPTFGGGTKVEIK    22%

API: the following record is the query input.
Any idea what its % Retained 65° C. is? The binder is CD3B2027 (scFv) scFv: QVQLVQSGAEVKKPGSSVKVSCKASGYTFTRSTMHWVKQAPGQGLEWIGYINPSSAYTNYNQKFQGRVTLTADKSTSTAYMELSSLRSEDTAVYYCASPQVHYDYNGFPYWGQGTLVTVSSGGSEGKSSGSGSESKSTGGSEIVLTQSPATLSASPGERVTLSCSASSSVSYMNWYQQKPGTSPRRLIYDSSKLASGVPARFSGSGSGRDYTLTISSLEPEDFAVYYCQQWSRNPPTFGGGTKVEIK 9%
